Sourced from patent US9566312B2

tested on: peripheral blood mononuclear cells (PBMC); assay: Anti-proliferative or immunosuppressive activity, BrdU incorporation in PHA-stimulated PBMC; type: cell-based; conditions: PHA 3 μg/ml, 60 hour compound treatment; read-out: EMV PBMC IC50
Starred links: 1 amine or outer side, 2 acyl side, 3 side chain; linkers in the order of their positions; H or OH if unused. Non-standard residues stand in square brackets, D forms with d. Residues, ends and D or L forms follow the SMILES beside them. X61 = C[C@@H]1CN(CCOC[C@@H](C)[C@@H](C(=O)[*:2])N(C)[*:1])[C@H](C)CO1; X16 = C[C@H](CN1CCN(S(C)(=O)=O)CC1)[C@@H](C(=O)[*:2])N(C)[*:1]; X38 = C[C@@H](CN1CCN2C(=O)OCC2C1)[C@@H](C(=O)[*:2])N(C)[*:1]; X5 = C[C@H](COC(=O)N1CCN(C)CC1)[C@@H](C(=O)[*:2])N(C)[*:1]; X67 = C[C@H](CCN1CCOC[C@@H]1C)[C@@H](C(=O)[*:2])N(C)[*:1]; MeBmt = C/C=C/C[C@@H](C)[C@@H](O)[C@H](NC)C(=O)O; NMeL = CN[C@@H](CC(C)C)C(=O)O; NMeV = CN[C@H](C(=O)O)C(C)C; dNMeA = CN[C@H](C)C(=O)O; Abu = CC[C@H](N)C(=O)O
As shown below, each of these compounds has a reported IC50 value.

{"compound": "C/C=C/C[C@@H](C)[C@@H](O)[C@H]1C(=O)N[C@@H](CC)C(=O)N(C)[C@H](C)C(=O)N(C)[C@@H]([C@H](C)CCN2CCOC[C@@H]2C)C(=O)N[C@@H](C(C)C)C(=O)N(C)[C@@H](CC(C)C)C(=O)N[C@@H](C)C(=O)N[C@H](C)C(=O)N(C)[C@@H](CC(C)C)C(=O)N(C)[C@@H](CC(C)C)C(=O)N(C)[C@@H](C(C)C)C(=O)N1C [Compound 2.18.4] (cyclo(A[dA][NMeL][NMeL][NMeV][MeBmt][Abu][dNMeA][X67]V[NMeL]))", "IC50": "10.6 µM"}
{"compound": "C/C=C/C[C@@H](C)[C@@H](O)[C@H]1C(=O)N[C@@H](CC)C(=O)N(C)[C@H](C)C(=O)N(C)[C@@H]([C@H](C)CN2CCN(S(C)(=O)=O)CC2)C(=O)N[C@@H](C(C)C)C(=O)N(C)[C@@H](CC(C)C)C(=O)N[C@@H](C)C(=O)N[C@H](C)C(=O)N(C)[C@@H](CC(C)C)C(=O)N(C)[C@@H](CC(C)C)C(=O)N(C)[C@@H](C(C)C)C(=O)N1C [Compound 2.5.5] (cyclo(A[dA][NMeL][NMeL][NMeV][MeBmt][Abu][dNMeA][X16]V[NMeL]))", "IC50": "2.8 µM"}
{"compound": "C/C=C/C[C@@H](C)[C@@H](O)[C@H]1C(=O)N[C@@H](CC)C(=O)N(C)[C@H](C)C(=O)N(C)[C@@H]([C@H](C)COCCN2C[C@@H](C)OC[C@H]2C)C(=O)N[C@@H](C(C)C)C(=O)N(C)[C@@H](CC(C)C)C(=O)N[C@@H](C)C(=O)N[C@H](C)C(=O)N(C)[C@@H](CC(C)C)C(=O)N(C)[C@@H](CC(C)C)C(=O)N(C)[C@@H](C(C)C)C(=O)N1C [Compound 2.8.4] (cyclo(A[dA][NMeL][NMeL][NMeV][MeBmt][Abu][dNMeA][X61]V[NMeL]))", "IC50": "10.7 µM"}
{"compound": "C/C=C/C[C@@H](C)[C@@H](O)[C@H]1C(=O)N[C@@H](CC)C(=O)N(C)[C@H](C)C(=O)N(C)[C@@H]([C@@H](C)CN2CCN3C(=O)OCC3C2)C(=O)N[C@@H](C(C)C)C(=O)N(C)[C@@H](CC(C)C)C(=O)N[C@@H](C)C(=O)N[C@H](C)C(=O)N(C)[C@@H](CC(C)C)C(=O)N(C)[C@@H](CC(C)C)C(=O)N(C)[C@@H](C(C)C)C(=O)N1C (some centres unmarked) [Compound 2.17.10] (cyclo(A[dA][NMeL][NMeL][NMeV][MeBmt][Abu][dNMeA][X38]V[NMeL]))", "IC50": "15 µM"}
{"compound": "C/C=C/C[C@@H](C)[C@@H](O)[C@H]1C(=O)N[C@@H](CC)C(=O)N(C)[C@H](C)C(=O)N(C)[C@@H]([C@H](C)COC(=O)N2CCN(C)CC2)C(=O)N[C@@H](C(C)C)C(=O)N(C)[C@@H](CC(C)C)C(=O)N[C@@H](C)C(=O)N[C@H](C)C(=O)N(C)[C@@H](CC(C)C)C(=O)N(C)[C@@H](CC(C)C)C(=O)N(C)[C@@H](C(C)C)C(=O)N1C [Compound 2.5.9] (cyclo(A[dA][NMeL][NMeL][NMeV][MeBmt][Abu][dNMeA][X5]V[NMeL]))", "IC50": "17.7 µM"}
